Source of measurements: patent US20250011363A1

# system: acetylcholine receptor (Homo sapiens, UniProt P02708)
# Sequence (P02708 21-457): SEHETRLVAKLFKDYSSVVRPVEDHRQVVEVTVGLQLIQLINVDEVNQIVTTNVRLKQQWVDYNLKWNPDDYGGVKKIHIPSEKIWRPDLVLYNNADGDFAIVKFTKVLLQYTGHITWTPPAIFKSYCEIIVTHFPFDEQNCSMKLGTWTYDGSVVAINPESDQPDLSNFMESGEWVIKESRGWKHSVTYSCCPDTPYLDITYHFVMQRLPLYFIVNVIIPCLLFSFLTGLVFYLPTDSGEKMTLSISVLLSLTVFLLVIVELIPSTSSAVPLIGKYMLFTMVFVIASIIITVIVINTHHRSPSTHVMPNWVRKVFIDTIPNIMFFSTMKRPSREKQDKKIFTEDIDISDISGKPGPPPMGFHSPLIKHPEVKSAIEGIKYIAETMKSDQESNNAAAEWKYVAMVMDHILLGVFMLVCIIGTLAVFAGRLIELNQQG
# protocol details: SPR binding affinity (RU) of optimized 5mer/6mer/7mer peptides, Examples 6-7
# conditions used: SPR, Resonance Units; peptides tested at 10 μM; 6mer-1 Bottom sequence
metric: Binding affinity
Your reply should be a number followed by the unit it is expressed in.

In plain terms, 6mer-1-1105 (RRCTAR) has a documented Binding affinity of 40 Ru

In plain terms, 6mer-1-1069 (KKIWAR) has a documented Binding affinity of 23 Ru

In plain terms, 6mer-1-1049 (KKDHKK) has a documented Binding affinity of 31 Ru

In plain terms, 6mer-1-1119 (KRIWVR) has a documented Binding affinity of 31 Ru

In plain terms, 6mer-1-1038 (RRKKIR) has a documented Binding affinity of 21 Ru

In plain terms, 6mer-1-1027 (KKPWHK) has a documented Binding affinity of 22 Ru

In plain terms, 6mer-1-1104 (KRNSAR) has a documented Binding affinity of 28 Ru

In plain terms, 6mer-1-1123 (RRDNVK) has a documented Binding affinity of 41 Ru

----------
The substances listed here are annotated with their Binding affinity.
# system: acetylcholine receptor (Homo sapiens, UniProt P02708)
# protocol details: SPR binding affinity (RU) of optimized 5mer/6mer/7mer peptides, Examples 6-7
# conditions used: SPR, peptides at 10 μM; 6mer-2 Bottom sequence
Your reply should be a number followed by the unit it is expressed in.

1. 6mer-2-1107 (RAHERK)	29 Ru

acetylcholine receptor (Homo sapiens, UniProt P02708) Binding affinity of 6mer-2-1061 (KPPIKK) is 38 Ru

acetylcholine receptor (Homo sapiens, UniProt P02708) Binding affinity of 6mer-2-1093 (KTTDKK) is 43 Ru

acetylcholine receptor (Homo sapiens, UniProt P02708) Binding affinity of 6mer-2-1167 (RCAPKR) is 27 Ru

acetylcholine receptor (Homo sapiens, UniProt P02708) Binding affinity of 6mer-2-1195 (KMTERK) is 25 Ru

acetylcholine receptor (Homo sapiens, UniProt P02708) Binding affinity of 6mer-2-1125 (RDAFKK) is 30 Ru

acetylcholine receptor (Homo sapiens, UniProt P02708) Binding affinity of 6mer-2-1020 (KHDKKR) is 21 Ru

acetylcholine receptor (Homo sapiens, UniProt P02708) Binding affinity of 6mer-2-1091 (RFDNKR) is 31 Ru

acetylcholine receptor (Homo sapiens, UniProt P02708) Binding affinity of 6mer-2-1052 (KAPARK) is 23 Ru

acetylcholine receptor (Homo sapiens, UniProt P02708) Binding affinity of 6mer-2-1012 (KASAKK) is 30 Ru

acetylcholine receptor (Homo sapiens, UniProt P02708) Binding affinity of 6mer-2-1003 (KPEWKR) is 42 Ru

acetylcholine receptor (Homo sapiens, UniProt P02708) Binding affinity of 6mer-2-1138 (KAHFKK) is 42 Ru

----------
# system: acetylcholine receptor (Homo sapiens, UniProt P02708)
# protocol details: SPR binding affinity (RU) of optimized 5mer/6mer/7mer peptides, Examples 6-7
# conditions used: SPR, Resonance Units; peptides tested at 10 μM; 6mer-1 Bottom sequence (Table 11)
// classify: if (Binding affinity < 20 Ru) y else n

As a guide, the following entries are already answered.
1. 6mer-1-776 (KKTSIK)	y
2. 6mer-1-715 (KRMMVK)	y
3. 6mer-1-607 (KKDHFR)	n
4. 6mer-1-696 (KKHCNR)	y
5. 6mer-1-744 (RKHEIK)	n

I'd appreciate it if you could check whether 6mer-1-777 (RRHNHR) has Binding affinity smaller than 20 Ru.
y

I'd appreciate it if you could check whether 6mer-1-772 (KRNCAK) has Binding affinity smaller than 20 Ru.
y

I'd appreciate it if you could check whether 6mer-1-749 (RKPHWR) has Binding affinity smaller than 20 Ru.
n

----------
# system: acetylcholine receptor (Homo sapiens)
# protocol details: SPR binding affinity (RU) of optimized 5mer/6mer/7mer peptides, Examples 6-7
# conditions used: 6mer-2 Top sequence; SPR; peptides tested at 10 μM
metric: Binding affinity

Here's what some known entries look like.
1. 6mer-2-78 (KRYLKR)	135 Ru
2. 6mer-2-134 (RLFQRK)	148 Ru
3. 6mer-2-177 (RSVTKK)	136 Ru

In plain terms, 6mer-2-83 (KQYQRR) has a documented Binding affinity of 135 Ru

In plain terms, 6mer-2-188 (RGYTKR) has a documented Binding affinity of 142 Ru

In plain terms, 6mer-2-162 (KVISKR) has a documented Binding affinity of 136 Ru

In plain terms, 6mer-2-198 (KWYYRK) has a documented Binding affinity of 139 Ru

In plain terms, 6mer-2-57 (KQRCRR) has a documented Binding affinity of 139 Ru

In plain terms, 6mer-2-49 (RLRCRK) has a documented Binding affinity of 154 Ru

In plain terms, 6mer-2-184 (KWVSRR) has a documented Binding affinity of 136 Ru

In plain terms, 6mer-2-71 (KQVYKR) has a documented Binding affinity of 141 Ru

In plain terms, 6mer-2-124 (KWQLKR) has a documented Binding affinity of 126 Ru

In plain terms, 6mer-2-119 (RSISKK) has a documented Binding affinity of 139 Ru

In plain terms, 6mer-2-106 (RWVQRK) has a documented Binding affinity of 123 Ru

In plain terms, 6mer-2-165 (KWFTRR) has a documented Binding affinity of 139 Ru

In plain terms, 6mer-2-192 (RWFSKK) has a documented Binding affinity of 133 Ru

In plain terms, 6mer-2-121 (KRVYRK) has a documented Binding affinity of 137 Ru

In plain terms, 6mer-2-201 (KLFLRR) has a documented Binding affinity of 148 Ru

In plain terms, 6mer-2-130 (RGVCRR) has a documented Binding affinity of 122 Ru

In plain terms, 6mer-2-22 (RQIRKK) has a documented Binding affinity of 124 Ru

In plain terms, 6mer-2-6 (KSICRR) has a documented Binding affinity of 122 Ru

In plain terms, 6mer-2-13 (RQYTRK) has a documented Binding affinity of 123 Ru

----------
# system: acetylcholine receptor (Homo sapiens, UniProt P02708)
# protocol details: SPR binding affinity (RU) of optimized 5mer/6mer/7mer peptides, Examples 6-7
# conditions used: SPR, Resonance Units; peptides tested at 10 μM; 6mer-2 Top sequence (Table 12)
# Method: Based on the frequencies of occurrence of the top 7 amino acids from Table 7 in Example 5, 600 peptides comprising these amino acids (top combinations) and those comprising the 13 less frequently occurring amino acids (bottom combinations) were synthesized for each series of 5mer, 6mer-1, and 6mer-2. The binding affinity of each sequence for the acetylcholine receptor was measured using Surface Plasmon Resonance (SPR) analysis method. The peptides were tested at a concentration of 10 μM. […]
metric: Binding affinity (Ru)
Just the number in Ru, nothing appended.

Here's what some known entries look like.
1. 6mer-2-225 (KRLLRR)	145
2. 6mer-2-366 (KQYYRR)	142

In plain terms, 6mer-2-232 (KQFTRK) has a documented Binding affinity of 135

In plain terms, 6mer-2-222 (RVVYRK) has a documented Binding affinity of 127

In plain terms, 6mer-2-304 (KWFYRK) has a documented Binding affinity of 144

In plain terms, 6mer-2-273 (KLRQRR) has a documented Binding affinity of 131

In plain terms, 6mer-2-333 (KRFRRK) has a documented Binding affinity of 139

In plain terms, 6mer-2-401 (RSILRK) has a documented Binding affinity of 153

----------
# system: acetylcholine receptor (Homo sapiens, UniProt P02708)
# protocol details: SPR binding affinity (RU) of optimized 5mer/6mer/7mer peptides, Examples 6-7
# conditions used: SPR, peptides tested at 10 μM; 6mer-1 Top sequence
metric: Binding affinity (Ru)
Just the number in Ru, nothing appended.

1) 6mer-1-576 (RKRQRR)	153
2) 6mer-1-474 (KRLFSK)	121
3) 6mer-1-482 (RKQVRK)	133
4) 6mer-1-511 (RKVYRR)	136
5) 6mer-1-532 (KKSQLR)	121
6) 6mer-1-584 (RKQVSK)	127

In plain terms, 6mer-1-567 (KKRVSR) has a documented Binding affinity of 136

In plain terms, 6mer-1-583 (KKVLYK) has a documented Binding affinity of 139

In plain terms, 6mer-1-466 (KRSICR) has a documented Binding affinity of 148

In plain terms, 6mer-1-451 (RKVRLR) has a documented Binding affinity of 153

In plain terms, 6mer-1-592 (RRWLSK) has a documented Binding affinity of 135

In plain terms, 6mer-1-547 (RKVQQR) has a documented Binding affinity of 148

In plain terms, 6mer-1-456 (RRGQYR) has a documented Binding affinity of 153

In plain terms, 6mer-1-535 (RRVILK) has a documented Binding affinity of 139

In plain terms, 6mer-1-406 (RKVLLR) has a documented Binding affinity of 153

In plain terms, 6mer-1-421 (RKVLYR) has a documented Binding affinity of 135

In plain terms, 6mer-1-453 (KKWQQK) has a documented Binding affinity of 154

In plain terms, 6mer-1-494 (KKLFSR) has a documented Binding affinity of 128

In plain terms, 6mer-1-1458 (RKGQLK) has a documented Binding affinity of 139

In plain terms, 6mer-1-518 (KRWVLK) has a documented Binding affinity of 153

In plain terms, 6mer-1-433 (RKQQYR) has a documented Binding affinity of 154

In plain terms, 6mer-1-589 (KKLQQK) has a documented Binding affinity of 139
